Field: SPOT peptide array binding signal intensity. Provide a value for each of the binders that follow.
molecular target: CaAbp1-D1; test: SPOT peptide array binding signal intensity (averaged, normalized) (arbitrary units (background-subtracted, floor 0; scale differs between SH3 domains)); higher = stronger binding of the SH3 domain to the peptide
// print number alone

## Input SPOT peptide array binding signal intensity lookup needed for `LSKRLPLRFPEHTSS` , thanks.
## Output 462

## Input Given `AERNYAPRLPRRETS` , state its recorded SPOT peptide array binding signal intensity.
## Output 84

## Input Look at this binder and give its reported SPOT peptide array binding signal intensity. `YHSRRHPLALGFKYV`
## Output 156

## Input Which value of SPOT peptide array binding signal intensity has been reported for `VKPRQLFPIPLNKVD` in the records?
## Output 98

## Input Give the measured SPOT peptide array binding signal intensity of `GSKSGPPPRPKKPST` .
## Output 328
